# SYSTEM_NAME: TGF-β1 raised in mice by acute liver damage (CCl4) (mouse, UniProt P04202 279-390, limits assumed)
# Sequence (P04202 279-390 limits assumed): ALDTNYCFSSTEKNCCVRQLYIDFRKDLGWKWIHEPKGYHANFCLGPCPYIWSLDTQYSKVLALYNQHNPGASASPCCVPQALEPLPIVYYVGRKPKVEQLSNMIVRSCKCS
# EXPERIMENTAL_PROTOCOL: cell-based or functional assay
Dear colleague, classification is by % Inhibition (type I collagen mRNA induction, acute liver damage model in mice), with ranges listed here: low bin: < 30%; mid bin: ≥ 30% and < 40%; high bin: ≥ 40%

BINDER	LABEL_CLASS
SGRRHLHRHHIFSLP (15-aa peptide) [peptide identified by SEQ ID NO: 14]	high bin
RKWFLQHRRMPVSVL (15-aa peptide) [peptide identified by SEQ ID NO: 13]	mid bin
GWITFHRRHHDRVLS (15-aa peptide) [peptide identified by SEQ ID NO: 15]	low bin
PPYHRFWRGHRHAVQ (15-aa peptide) [peptide identified by SEQ ID NO: 6]	high bin
KRIWFIPRSSWYERA (15-aa peptide) [TGF-β1 inhibitor peptide P17 (SEQ ID NO: 17)]	high bin
GWHSLLHSRYHRLAA (15-aa peptide) [peptide identified by SEQ ID NO: 9]	low bin
RHLSHFKWLRSHGLD (15-aa peptide) [peptide identified by SEQ ID NO: 19]	low bin
DRRIFWWSNRSAPGA (15-aa peptide) [peptide identified by SEQ ID NO: 2]	mid bin
RFFTRFPWHYHASRL (15-aa peptide) [peptide identified by SEQ ID NO: 3]	low bin

The measurements presented in this section are drawn from patent US20100222280A1.
